Every entry's value here was drawn from the supplement of paper PMC9177965.

cell viability activity listing for selected compounds.
- System: HT29 sg-Ctrl (RNF43 wildtype)
- measurement_protocol: cell viability activity relative to DMSO (negative = inhibition); higher = more viable cells (less growth inhibition)
- run_conditions: 5 µM; 96 h
endpoint_label: cell viability activity (%)

>  <compound>
O=P(O)(O)C(O)(Cn1ccnc1)P(=O)(O)O

>  <recorded_measurement>
-25.6

$$$$
>  <compound>
Nc1ncnc2c1c(-c1cccc(OCc3ccccc3)c1)cn2C1CC(CN2CCC2)C1 (centres undefined)

>  <recorded_measurement>
-61.2

$$$$
>  <compound>
CCC(=O)N1CCN(c2ccc(-n3c(=O)ccc4cnc5ccc(-c6cnc7ccccc7c6)cc5c43)cc2C(F)(F)F)CC1

>  <recorded_measurement>
-34.6

$$$$
>  <compound>
Clc1ccc(C2(c3ccc(-c4cn[nH]c4)cc3)CCNCC2)cc1

>  <recorded_measurement>
-86.8

$$$$
>  <compound>
CCn1c(=O)c(-c2cc[nH]n2)cc2c(C)nc(N)nc21

>  <recorded_measurement>
-42.2

$$$$
>  <compound>
COC(=O)C1=C(C#N)NC(C)=C(C(=O)OC(C)C)C1c1cccc([N+](=O)[O-])c1 (centres undefined)

>  <recorded_measurement>
-65.8

$$$$
>  <compound>
Cc1ncc(-c2ccnc(Nc3ccc(S(C)(=O)=O)cc3)n2)n1C(C)C

>  <recorded_measurement>
-87.7

$$$$
>  <compound>
C/C(=C\c1csc(C)n1)[C@@H]1C[C@@H]2O[C@]2(C)CCC[C@H](C)[C@H](O)[C@@H](C)C(=O)C(C)(C)[C@@H](O)CC(=O)N1

>  <recorded_measurement>
-38.1

$$$$
>  <compound>
O=C(O)[C@]1(Cc2cccc(Nc3nccs3)n2)CC[C@@H](Oc2cccc(Cl)c2F)CC1

>  <recorded_measurement>
-24.6

$$$$
